# credit: the Kinase Knowledgebase extract (Sharma et al. 2016)

List of pKi tested on PIK3CG (human) (UniProt P48736).
Sequence (P48736 whole entry, looked up): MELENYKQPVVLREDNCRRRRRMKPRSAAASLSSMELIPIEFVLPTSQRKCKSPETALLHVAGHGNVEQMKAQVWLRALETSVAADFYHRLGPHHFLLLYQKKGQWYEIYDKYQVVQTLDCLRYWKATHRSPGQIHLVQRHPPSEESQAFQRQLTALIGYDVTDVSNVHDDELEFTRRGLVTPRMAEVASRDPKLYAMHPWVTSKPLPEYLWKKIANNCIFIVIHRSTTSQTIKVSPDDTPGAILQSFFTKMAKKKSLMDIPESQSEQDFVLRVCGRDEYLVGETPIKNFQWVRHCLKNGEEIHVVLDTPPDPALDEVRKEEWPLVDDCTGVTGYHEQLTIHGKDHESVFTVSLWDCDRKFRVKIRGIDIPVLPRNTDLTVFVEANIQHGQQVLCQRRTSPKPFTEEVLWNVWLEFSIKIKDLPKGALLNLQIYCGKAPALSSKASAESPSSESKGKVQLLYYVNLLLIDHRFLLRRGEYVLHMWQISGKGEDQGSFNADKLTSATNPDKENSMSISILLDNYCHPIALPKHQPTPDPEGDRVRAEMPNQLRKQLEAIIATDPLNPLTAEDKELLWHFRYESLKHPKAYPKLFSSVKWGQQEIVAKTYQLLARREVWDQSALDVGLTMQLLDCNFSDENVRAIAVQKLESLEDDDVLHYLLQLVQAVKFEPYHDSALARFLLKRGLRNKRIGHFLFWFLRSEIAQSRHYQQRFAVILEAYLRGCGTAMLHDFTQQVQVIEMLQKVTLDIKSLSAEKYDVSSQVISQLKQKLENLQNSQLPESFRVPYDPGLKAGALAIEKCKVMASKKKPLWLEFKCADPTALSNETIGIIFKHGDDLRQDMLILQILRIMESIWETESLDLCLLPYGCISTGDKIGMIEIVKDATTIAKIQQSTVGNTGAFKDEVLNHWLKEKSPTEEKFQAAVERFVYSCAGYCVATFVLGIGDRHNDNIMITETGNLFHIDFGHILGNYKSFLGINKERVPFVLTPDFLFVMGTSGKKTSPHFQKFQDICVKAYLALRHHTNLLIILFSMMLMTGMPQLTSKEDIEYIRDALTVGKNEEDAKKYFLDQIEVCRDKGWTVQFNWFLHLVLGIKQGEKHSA
pKi: −log10 of the molar value.

[Q] So what does the record say about pKi for COc1cc(-c2ccc3c(n2)CN(c2ccc(CN4CCOCC4)nc2)C3=O)cnc1OC ?
[A] 6.31 to 7.00

[Q] So what does the record say about pKi for CCOc1cncc(-c2cc(C)c3c(n2)C(C)(C)N(c2cn[nH]c2)C3=O)c1 ?
[A] 6.31 to 7.00

[Q] So what does the record say about pKi for COc1cc(-c2ccc3c(n2)CN(c2cnn(CCC#N)c2)C3=O)cnc1OC ?
[A] > 7.00

[Q] So what does the record say about pKi for CCOc1ncc(-c2ccc3c(c2)CN(c2cnn(CC#N)c2)C3=O)cc1OC ?
[A] > 7.00

[Q] So what does the record say about pKi for CC[C@H]1c2nc(-c3cnc(OC)c(OC)c3)ccc2C(=O)N1c1cnn(CC(F)(F)F)c1 ?
[A] 6.31 to 7.00

[Q] So what does the record say about pKi for CCc1cncc(-c2cc(C)c3c(n2)C(C)(C)N(c2cnn(CC(F)(F)F)c2)C3=O)c1 ?
[A] > 7.00

[Q] So what does the record say about pKi for COc1cc(-c2ccc3c(n2)CN(c2cc(C)[nH]n2)C3=O)cnc1OC ?
[A] > 7.00

====

Molecular target: UniProtKB P48736
pKi: −log10 of the molar value.
recorded.endpoint: pKi

Before answering, review these 10 worked examples.
1. CCn1ncc(N2Cc3cc(-c4cnc(OC)c(OC)c4)ccc3C2=O)n1 :: > 7.00
2. COc1cc(-c2cc(C)c3c(n2)CN(c2ncccn2)C3=O)cnc1OC :: 6.31 to 7.00
3. COc1cncc(-c2cc(C)c3c(n2)C(C)N(c2cn(C)cn2)C3=O)c1 (stereo unspecified) :: > 7.00
4. CCOc1cncc(-c2cc(C)c3c(n2)[C@@](C)(OC)N(c2cnn(CC(F)(F)F)c2)C3=O)c1 :: > 7.00
5. CC1c2nc(-c3cccc(OC(F)(F)F)c3)ccc2C(=O)N1c1cnn(CC(F)(F)F)c1 (stereo unspecified) :: > 7.00
6. CCn1ccc(N2C(=O)c3c(C)cc(-c4cncc(OCC(F)F)c4)nc3C2C)n1 (stereo unspecified) :: > 7.00
7. COc1ncc(-c2cc(C)c3c(n2)CN(c2cnn(C)c2)C3=O)cc1OC(F)F :: > 7.00
8. CCOc1cncc(N2Cc3nc(-c4cnc(OC)c(OC)c4)cc(C)c3C2=O)c1 :: > 7.00
9. COc1cc(-c2ccc3c(c2)CN(c2cccc(C(C)=O)c2)C3=O)cnc1OC :: 6.31 to 7.00
10. C=C(F)Cn1cc(N2Cc3nc(-c4cnc(OC)c(OC)c4)ccc3C2=O)cn1 :: > 7.00

Then this compound:
[Q] Any idea what pKi came out for Cc1cc(-c2cncc(OC(F)F)c2)nc2c1C(=O)N(c1cn[nH]c1)[C@H]2C on UniProtKB P48736?
[A] > 7.00

====

Target: PIK3CG (human)
Here, each record is paired with measured Ki data.

1) CCCOCCOc1ncc(-c2cc(C)c3c(n2)CN(c2cnn(CC(F)(F)F)c2)C3=O)cc1OC :: 100 to 490 nM
2) Cc1cc(-c2cnc(C)c(OCC(F)(F)F)c2)nc2c1C(=O)N(c1ccn([C@H]3CCOC3)n1)C2 :: < 100 nM
3) COCCOc1ncc(-c2cc(C)c3c(n2)CN(c2cnn(CC#N)c2)C3=O)cc1OC :: < 100 nM
4) CCn1nc(N2Cc3cc(-c4cnc(OC)c(OC)c4)ccc3C2=O)cc1C :: 100 to 490 nM

Then this molecule:
[Q] Any idea what Ki came out for COc1cc(-c2ccc3c(c2)CN(c2cc(C4CC4)[nH]n2)C3=O)cnc1OC on PIK3CG (human)?
[A] < 100 nM

====

Biological target: UniProt P48736
pKi: −log10 of the molar value.
recorded.endpoint: pKi

1. CCc1cc(N2Cc3nc(-c4cnc(OC)c(OC)c4)cc(C)c3C2=O)nn1CC(F)(F)F :: > 7.00
2. Cc1cc(-c2cncc(N)c2)nc2c1C(=O)N(c1cnn(CC(F)(F)F)c1)C2 :: 6.31 to 7.00
3. CCn1cc(N2Cc3nc(-c4cnc(OC)c(OCC5CC5)c4)cc(C)c3C2=O)cn1 :: > 7.00

[Q] Any idea what pKi came out for CCCOc1cc(-c2cc(C)c3c(n2)C(C)(C)N(c2cnn(CC#N)c2)C3=O)cnc1CC on UniProt P48736?
[A] > 7.00

[Q] Any idea what pKi came out for COc1cncc(-c2cc(C)c3c(n2)C2(CC(O)C2)N(c2cnn(CC(F)(F)F)c2)C3=O)c1 (centres undefined) on UniProt P48736?
[A] > 7.00

[Q] Any idea what pKi came out for CCC1c2nc(-c3cnc(OC)c(OC)c3)ccc2C(=O)N1c1cc(COC)n(CC)n1 (centres undefined) on UniProt P48736?
[A] 6.31 to 7.00

====

pKi: −log10 of the molar value.
List of pKi tested on PIK3CG (human) (UniProt P48736).

Before answering, review these 3 worked examples.
1. CCn1cc(N2Cc3nc(-c4cnc(OC)c(OC(C)C)c4)cc(C)c3C2=O)cn1 :: > 7.00
2. COc1cc(-c2ccc3c(n2)CN(c2ccc(N4CCC[C@@H]4CO)nc2)C3=O)cnc1OC :: > 7.00
3. COc1cc(-c2cc(C)c3c(n2)C2(CCCO2)N(c2cnn(CC(F)(F)F)c2)C3=O)cnc1OC (centres undefined) :: > 7.00

[Q] Any idea what pKi came out for COc1ncc(-c2cc(C)c3c(n2)CN(c2cc[nH]n2)C3=O)cc1OC(F)F on PIK3CG (human) (UniProt P48736)?
[A] > 7.00

====

List of Ki tested on UniProt P48736.

1) COc1cncc(-c2cc(C)c3c(n2)C2(CCNCC2)N(c2cnn(CC(F)(F)F)c2)C3=O)c1 :: 100 to 490 nM
2) COc1ncc(-c2cc(C)c3c(n2)C(C)N(c2cnn(CC(F)F)c2)C3=O)cc1C(=O)O (centres undefined) :: < 100 nM

[Q] So what does the record say about Ki for Cc1cc(-c2cncc(NS(=O)(=O)N(C)C)c2)nc2c1C(=O)N(c1cnn(CC(F)(F)F)c1)C2(C)C ?
[A] < 100 nM

[Q] So what does the record say about Ki for Cc1cc(-c2cncc(OCC(F)F)c2)nc2c1C(=O)N(c1cnn(CC(F)(F)F)c1)C2C (centres undefined) ?
[A] < 100 nM

[Q] So what does the record say about Ki for CCOc1ncc(-c2cc(C)c3c(c2)CN(c2cnn(CC(F)(F)F)c2)C3=O)cc1OC ?
[A] < 100 nM

[Q] So what does the record say about Ki for COc1cc(-c2ccc3c(n2)CN(c2cnn(Cc4cc(C)on4)c2)C3=O)cnc1OC ?
[A] < 100 nM

[Q] So what does the record say about Ki for COc1cc(-c2ccc3c(n2)[C@H](C)N(c2cn[nH]c2)C3=O)cnc1OC ?
[A] < 100 nM

[Q] So what does the record say about Ki for COc1cc(-c2ccc3c(n2)CN(c2ccc(OCC(F)(F)F)nc2)C3=O)cnc1OC ?
[A] 100 to 490 nM

[Q] So what does the record say about Ki for COC(=O)Cc1cncc(N2Cc3nc(-c4cnc(OC)c(OC)c4)cc(C)c3C2=O)c1 ?
[A] < 100 nM

[Q] So what does the record say about Ki for CCc1cc(N2Cc3nc(-c4cnc(OC)c(OC)c4)ccc3C2=O)n[nH]1 ?
[A] 100 to 490 nM

====

List of Ki tested on UniProt:P48736.

1) COc1cc(-c2ccc3c(n2)CN(c2cnn(CC(F)(F)F)c2)C3=O)cnc1OC :: < 100 nM
2) COc1cc(-c2ccc3c(n2)CN(c2cnn(CC(O)C(F)(F)F)c2)C3=O)cnc1OC (stereo not given) :: < 100 nM
3) Cc1cc(-c2cncc(C(=O)O)c2)nc2c1C(=O)N(c1cnn(CC(F)(F)F)c1)C2 :: < 100 nM
4) COc1cc(-c2ccc3c(n2)CN(c2cnn(CC(N)=O)c2)C3=O)cnc1OC :: < 100 nM
5) COc1cc(-c2ccc3c(n2)CN(c2cnn(C(C)(C)C#N)c2)C3=O)cnc1OC(F)F :: < 100 nM

[Q] So what does the record say about Ki for COc1cc(-c2ccc3c(n2)CN(c2cnn(CCC(=O)O)c2)C3=O)cnc1OC ?
[A] < 100 nM

[Q] So what does the record say about Ki for COc1cc(-c2ccc3c(c2)CN(c2cnn(CC(F)F)c2)C3=O)cnc1OC ?
[A] < 100 nM

[Q] So what does the record say about Ki for CCOc1cc(-c2cc(C)c3c(c2)C(C)N(c2cnn(CC(F)(F)F)c2)C3=O)cnc1OCC (stereo not given) ?
[A] < 100 nM

[Q] So what does the record say about Ki for CCOc1cc(-c2ccc3c(c2)CN(c2cnn(CC)c2)C3=O)cnc1OC ?
[A] 100 to 490 nM

[Q] So what does the record say about Ki for COCCOc1ncc(-c2cc(C)c3c(n2)C(C)N(c2ccn(C)n2)C3=O)cc1OC (stereo not given) ?
[A] < 100 nM
